test: yeast display, Sf9 membrane polyspecificity reagent, FACS + sequencing; frameworks hold sequencing errors
experimental-endpoint: polyreactivity (PSR sort gate)

# example entries with known answers
# biosequence, polyreactivity (PSR sort gate)
measured = [
    ("QVQLVESGAGLVQAGGSLRLSCAASGRIFAYNAMGWYRQAPGKERELVAGITIRGGRTYYADSVKGRFTISRYNAKNTVYLQMNSLKPEDTAVYYCNARGWYEYGWGQGTQVTVSS", "high polyreactivity"),
    ("QVQLVESGGGLVQAGGSLRLSCAASGSIYYYAMGWYRQAPGKERELVAVITSRGGSTNYADSVKGRFTISRDNAKNTVYLQMNSLKPQDTAVYYCNADYYRYYSITYGGDYWGQGTQVTVSS", "high polyreactivity"),
    ("QVHLVESGGGLVQAGGSLRLSCAASGSIFPFNAMGWYRQAPGKERELVAAIRWSDGRTYYADSVKGRFTISRDNAKNTVYLQMNSLKPEDTAVYYCAAKSYWGQGTQVTVSS", "high polyreactivity"),
    ("QVQHVESGGGLVQAGGSLRLSCAASGNSFRYYTMGWYRQAPGKEREFVAAISWSGGRTRYADSVKGRFTISRDNAMITVYLQMNSLKPEDTAVYYCAAYTPSYGGRDYWGQGTQVTVSS", "low polyreactivity"),
]

Let us examine a further case.
Which value of polyreactivity (PSR sort gate) has been reported for `QVQLVESGGGLVQAGGSLRLSCPASGSICRYYAMGWYRQAPGKERELVAVITRGGSTYYADSVKGRFTISRDNAKNTVYLQMNSLKPEDTAVYYCAADYWPAGLDRGYWGQGTQVTLSS` in the records?
low polyreactivity
